- tested target: BACE2 enzyme (Homo sapiens)
- Sequence (Q9Y5Z0 63-518): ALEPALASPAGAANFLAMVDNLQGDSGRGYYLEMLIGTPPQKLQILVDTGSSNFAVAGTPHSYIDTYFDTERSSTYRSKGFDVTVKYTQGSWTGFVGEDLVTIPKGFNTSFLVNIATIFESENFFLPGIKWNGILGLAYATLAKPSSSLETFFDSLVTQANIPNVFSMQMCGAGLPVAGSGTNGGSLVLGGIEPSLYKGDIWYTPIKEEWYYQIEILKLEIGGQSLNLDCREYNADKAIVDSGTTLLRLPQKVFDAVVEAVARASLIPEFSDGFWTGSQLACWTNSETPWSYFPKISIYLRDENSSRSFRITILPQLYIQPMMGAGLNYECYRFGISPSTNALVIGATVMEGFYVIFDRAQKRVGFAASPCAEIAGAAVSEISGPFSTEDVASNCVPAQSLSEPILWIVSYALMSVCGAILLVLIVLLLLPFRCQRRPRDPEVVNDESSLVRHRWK
- test summary: BACE2 enzyme inhibition, Ki from kinetic data under tight-binding conditions
- Type: biochemical
- condition details: read-out: Ki (nM) BACE2; Table 2
endpoint label: Ki (nM)
Reply with just the number (in nM).

• COc1cccc([C@@H](NC[C@@H](O)[C@H](Cc2ccccc2)NC(=O)c2cc(C(=O)N[C@H](C)c3ccccc3)cc(N(C)S(C)(=O)=O)c2)[C@H](C)O)c1 = 731

Could you tell me which Ki is on file for CCC[C@H](O)[C@H](NC[C@@H](O)[C@H](Cc1ccccc1)NC(=O)c1cc(C)cc(C(=O)N(C)[C@H](C)c2ccccc2)c1)c1cccc(OC)c1 ?
141

What value of Ki has been recorded for this entry: COc1cccc([C@@H](NC[C@@H](O)[C@H](Cc2ccccc2)NC(=O)c2cccc(C(=O)N(C)[C@H](C)c3ccccc3)c2)[C@H](C)O)c1
950

Which Ki value is on record for COc1cccc([C@@H](NC[C@@H](O)[C@H](Cc2ccccc2)NC(=O)c2cc(C(=O)N(C)[C@H](C)c3ccccc3)cc(N(C)S(C)(=O)=O)c2)[C@H](C)O)c1 ?
479

Fill in the blank: the reported Ki of CCC[C@H](O)[C@H](NC[C@@H](O)[C@H](Cc1ccccc1)NC(=O)c1cccc(C(=O)N(C)[C@H](C)c2ccccc2)c1)c1ccccc1 is ____.
2550

* * *

- tested target: BACE2 enzyme (Homo sapiens)
- test summary: BACE2 enzyme inhibition, Ki from kinetic data under tight-binding conditions
- Assay type: biochemical
- condition details: BACE2 Ki
endpoint label: Ki (nM)
Provide only the numeric value, understood in nM.

Please give the measured Ki for this compound: C[C@H](c1ccccc1)N(C)C(=O)c1cccc(C(=O)N[C@@H](Cc2ccccc2)[C@H](O)CNCc2cccc(C(F)(F)F)c2)c1 [inhibitor 3k]
35.7

* * *

- tested target: BACE2 enzyme (Homo sapiens)
- Sequence (Q9Y5Z0 63-518): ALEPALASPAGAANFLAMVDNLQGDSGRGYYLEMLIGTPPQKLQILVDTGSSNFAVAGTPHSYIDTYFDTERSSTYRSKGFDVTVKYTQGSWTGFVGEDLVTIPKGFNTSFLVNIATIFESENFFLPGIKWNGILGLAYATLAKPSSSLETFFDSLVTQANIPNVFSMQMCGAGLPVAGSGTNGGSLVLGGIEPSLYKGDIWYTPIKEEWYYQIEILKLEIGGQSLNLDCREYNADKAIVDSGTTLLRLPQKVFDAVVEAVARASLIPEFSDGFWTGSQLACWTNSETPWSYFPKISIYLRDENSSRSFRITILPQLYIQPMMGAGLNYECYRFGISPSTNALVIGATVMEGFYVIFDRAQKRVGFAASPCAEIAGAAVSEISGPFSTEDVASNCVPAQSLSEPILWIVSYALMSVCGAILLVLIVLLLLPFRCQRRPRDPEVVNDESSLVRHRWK
- test summary: BACE2 enzyme inhibition, Ki from kinetic data under tight-binding conditions
- Type: biochemical
- condition details: Ki (nM) BACE2, Table 1, new inhibitors 2f-j
endpoint label: Ki (nM)
Your answer is read as nM, so omit the unit and give the number.

# annotated cases, reported Ki shown
- CCC[C@H](O)[C@H](NC[C@@H](O)[C@H](Cc1ccccc1)NC(=O)c1cc(C)cc(C(=O)N2CCC[C@@H]2COC)c1)C(=O)NCC(C)C [inhibitor 2g]: 27.9
- COC[C@H]1CCCN1C(=O)c1cccc(C(=O)N[C@@H](Cc2ccccc2)[C@H](O)CN[C@H](C(=O)NCC(C)C)[C@H](C)O)c1 [inhibitor 2f]: 1370
- CCC[C@H](O)[C@H](NC[C@@H](O)[C@H](Cc1ccccc1)NC(=O)c1cc(C)cc(C(=O)N(C)Cc2nc(C)cs2)c1)C(=O)NCC(C)C [inhibitor 2j]: 25.3
- Cc1cc(C(=O)N[C@@H](Cc2ccccc2)[C@H](O)CN[C@H](C(=O)NCC(C)C)[C@H](C)O)cc(C(=O)N(C)Cc2nc(C)cs2)c1 [inhibitor 2h]: 96.9

Note: attention shifts to another entry.
GET /values?readout=Ki&item= CCC[C@H](O)[C@H](NC[C@@H](O)[C@H](Cc1ccccc1)NC(=O)c1cccc(C(=O)N(C)Cc2nc(C)cs2)c1)C(=O)NCC(C)C [inhibitor 2i]
51.1
